# Test system: Escherichia coli
# Assay protocol: Antibacterial activity against Escherichia coli ATCC 25922
# Type: functional
Non-standard residues stand in square brackets, D forms with d. Residues, ends and D or L forms follow the SMILES beside them. *: point of attachment. Phe(4-guanidino) = N=C(N)Nc1ccc(C[C@H](N)C(=O)O)cc1; NHPhenethyl = c1ccc(CCN*)cc1; Orn = NCCC[C@H](N)C(=O)O; NHBn = c1ccc(CN*)cc1
Assignment: determine reported Activity for the given molecules.

Dear colleague, I am looking for the recorded Activity of the following molecule: N=C(N)NCCC[C@H](NC(=O)[C@H](Cc1c[nH]c2ccccc12)NC(=O)[C@@H](N)CCCNC(=N)N)C(=O)NCc1ccccc1 (H-Arg-Trp-Arg-NHBn)
>200 µM

Dear colleague, I am looking for the recorded Activity of the following molecule: N=C(N)NCCC[C@H](N)C(=O)N[C@@H](Cc1ccc(NC(=N)N)cc1)C(=O)N[C@@H](Cc1c[nH]c2ccccc12)C(=O)NCc1ccccc1 (H-Arg-[Phe(4-guanidino)]-Trp-NHBn)
>200 µM

Dear colleague, I am looking for the recorded Activity of the following molecule: N=C(N)NCCC[C@H](N)C(=O)N[C@@H](Cc1c[nH]c2ccccc12)C(=O)N[C@@H](CCCCN)C(=O)NCc1ccccc1 (H-Arg-Trp-Lys-NHBn)
>200 µM

Dear colleague, I am looking for the recorded Activity of the following molecule: N=C(N)NCCC[C@H](N)C(=O)N[C@@H](Cc1c[nH]c2ccccc12)C(=O)N[C@@H](CCCN)C(=O)NCc1ccccc1 (H-Arg-Trp-[Orn]-NHBn)
>200 µM

Dear colleague, I am looking for the recorded Activity of the following molecule: NC(=O)[C@H](CCCN=C(N)N)NC(=O)[C@H](Cc1c[nH]c2ccccc12)NC(=O)[C@@H](N)CCCN=C(N)N (H-Arg-Trp-Arg-NH2)
>200 µM

Dear colleague, I am looking for the recorded Activity of the following molecule: N=C(N)NCCC[C@H](NC(=O)[C@H](Cc1c[nH]c2ccccc12)NC(=O)[C@@H](N)CCCNC(=N)N)C(=O)NCCc1ccccc1 (H-Arg-Trp-Arg-NHPhenethyl)
>200 µM

====

# Assay protocol: Stability of the compound in 0.1 M NH4HCO3 buffer at pH 8.2 assessed as half life in presence of chymotrypsin
# Type: physicochemical
# Condition info: chymotrypsin in NH4HCO3 buffer
Non-standard residues stand in square brackets, D forms with d. Residues, ends and D or L forms follow the SMILES beside them. *: point of attachment. Phe(4-guanidino) = N=C(N)Nc1ccc(C[C@H](N)C(=O)O)cc1; Phe(4-NH2) = Nc1ccc(C[C@H](N)C(=O)O)cc1; hArg = N=C(N)NCCCC[C@H](N)C(=O)O; NHPhenethyl = c1ccc(CCN*)cc1; Orn = NCCC[C@H](N)C(=O)O; NHBn = c1ccc(CN*)cc1
Quantity: log10 half-life (log10 of the value in h)
Values reflect log10 of reported half-life (h).

Dear colleague, I am looking for the recorded log10 half-life of the following compound: N=C(N)NCCC[C@H](NC(=O)[C@H](Cc1c[nH]c2ccccc12)NC(=O)[C@@H](N)CCCNC(=N)N)C(=O)NCCc1ccccc1 (H-Arg-Trp-Arg-NHPhenethyl)
-0.30

Dear colleague, I am looking for the recorded log10 half-life of the following compound: N=C(N)NCCC[C@H](N)C(=O)N[C@@H](Cc1ccc(N)cc1)C(=O)N[C@@H](Cc1c[nH]c2ccccc12)C(=O)NCc1ccccc1 (H-Arg-[Phe(4-NH2)]-Trp-NHBn)
1.23

Dear colleague, I am looking for the recorded log10 half-life of the following compound: N=C(N)NCCC[C@H](N)C(=O)N[C@@H](Cc1c[nH]c2ccccc12)C(=O)N[C@@H](Cc1ccc(NC(=N)N)cc1)C(=O)NCc1ccccc1 (H-Arg-Trp-[Phe(4-guanidino)]-NHBn)
0.60

Dear colleague, I am looking for the recorded log10 half-life of the following compound: N=C(N)NCCC[C@H](NC(=O)[C@H](Cc1c[nH]c2ccccc12)NC(=O)[C@@H](N)CCCNC(=N)N)C(=O)NCc1ccccc1 (H-Arg-Trp-Arg-NHBn)
0.30

Dear colleague, I am looking for the recorded log10 half-life of the following compound: N=C(N)NCCCC[C@H](NC(=O)[C@H](Cc1c[nH]c2ccccc12)NC(=O)[C@@H](N)CCCNC(=N)N)C(=O)NCc1ccccc1 (H-Arg-Trp-[hArg]-NHBn)
0.00

Dear colleague, I am looking for the recorded log10 half-life of the following compound: N=C(N)NCCC[C@H](N)C(=O)N[C@@H](Cc1c[nH]c2ccccc12)C(=O)N[C@@H](CCCN)C(=O)NCc1ccccc1 (H-Arg-Trp-[Orn]-NHBn)
1.30

Dear colleague, I am looking for the recorded log10 half-life of the following compound: N=C(N)NCCC[C@H](NC(=O)[C@H](Cc1ccccc1)NC(=O)[C@@H](N)CCCNC(=N)N)C(=O)NCc1ccccc1 (H-Arg-Phe-Arg-NHBn)
0.48

Dear colleague, I am looking for the recorded log10 half-life of the following compound: N=C(N)NCCC[C@H](N)C(=O)N[C@@H](Cc1c[nH]c2ccccc12)C(=O)N[C@@H](CCCCN)C(=O)NCc1ccccc1 (H-Arg-Trp-Lys-NHBn)
0.60

Dear colleague, I am looking for the recorded log10 half-life of the following compound: NC(=O)[C@H](CCCN=C(N)N)NC(=O)[C@H](Cc1c[nH]c2ccccc12)NC(=O)[C@@H](N)CCCN=C(N)N (H-Arg-Trp-Arg-NH2)
0.70

Dear colleague, I am looking for the recorded log10 half-life of the following compound: N=C(N)NCCC[C@H](NC(=O)[C@@H](N)CCCNC(=N)N)C(=O)N[C@@H](Cc1c[nH]c2ccccc12)C(=O)NCc1ccccc1 (H-Arg-Arg-Trp-NHBn)
0.85

====

Assignment: determine reported MIC for the given compounds.
# Test system: Staphylococcus aureus
# Assay protocol: Antibacterial activity against methicillin-resistant Staphylococcus aureus ATCC 33591
# Format: functional
Non-standard residues stand in square brackets, D forms with d. Residues, ends and D or L forms follow the SMILES beside them. *: point of attachment. Phe(4-guanidino) = N=C(N)Nc1ccc(C[C@H](N)C(=O)O)cc1; Bip = N[C@@H](Cc1ccc(-c2ccccc2)cc1)C(=O)O; Phe(4-NH2) = Nc1ccc(C[C@H](N)C(=O)O)cc1; Agp = N=C(N)NC[C@H](N)C(=O)O; NHBn = c1ccc(CN*)cc1
State the answer as a number, implicitly in µM.

Dear colleague, I am looking for the recorded MIC of the following compound: N=C(N)NCCC[C@H](N)C(=O)N[C@@H](Cc1c[nH]c2ccccc12)C(=O)N[C@@H](CNC(=N)N)C(=O)NCc1ccccc1 (H-Arg-Trp-[Agp]-NHBn)
16

Dear colleague, I am looking for the recorded MIC of the following compound: N=C(N)NCCC[C@H](N)C(=O)N[C@@H](Cc1c[nH]c2ccccc12)C(=O)N[C@@H](CCCCN)C(=O)NCc1ccccc1 (H-Arg-Trp-Lys-NHBn)
54

Dear colleague, I am looking for the recorded MIC of the following compound: N=C(N)NCCC[C@H](NC(=O)[C@H](Cc1ccc(-c2ccccc2)cc1)NC(=O)[C@@H](N)CCCNC(=N)N)C(=O)NCc1ccccc1 (H-Arg-[Bip]-Arg-NHBn)
15

Dear colleague, I am looking for the recorded MIC of the following compound: N=C(N)NCCC[C@H](N)C(=O)N[C@@H](Cc1c[nH]c2ccccc12)C(=O)N[C@@H](Cc1ccc(NC(=N)N)cc1)C(=O)NCc1ccccc1 (H-Arg-Trp-[Phe(4-guanidino)]-NHBn)
10

Dear colleague, I am looking for the recorded MIC of the following compound: N=C(N)NCCC[C@H](N)C(=O)N[C@@H](Cc1c[nH]c2ccccc12)C(=O)N[C@@H](Cc1ccc(N)cc1)C(=O)NCc1ccccc1 (H-Arg-Trp-[Phe(4-NH2)]-NHBn)
79

====

# Assay protocol: Binding affinity to chymotrypsin by isothermal titration […]
Non-standard residues stand in square brackets, D forms with d. Residues, ends and D or L forms follow the SMILES beside them. *: point of attachment. Bip = N[C@@H](Cc1ccc(-c2ccccc2)cc1)C(=O)O; Agp = N=C(N)NC[C@H](N)C(=O)O; NHBn = c1ccc(CN*)cc1
Quantity: Kd (µM)
State the answer as a number, implicitly in µM.

Dear colleague, I am looking for the recorded Kd of the following compound: N=C(N)NCCC[C@H](N)C(=O)N[C@@H](Cc1c[nH]c2ccccc12)C(=O)N[C@@H](CNC(=N)N)C(=O)NCc1ccccc1 (H-Arg-Trp-[Agp]-NHBn)
61.1

Dear colleague, I am looking for the recorded Kd of the following compound: N=C(N)NCCC[C@H](NC(=O)[C@H](Cc1ccc(-c2ccccc2)cc1)NC(=O)[C@@H](N)CCCNC(=N)N)C(=O)NCc1ccccc1 (H-Arg-[Bip]-Arg-NHBn)
18.4
